# study-system: UniProt:A3KMY8
# Sequence (A3KMY8 whole entry): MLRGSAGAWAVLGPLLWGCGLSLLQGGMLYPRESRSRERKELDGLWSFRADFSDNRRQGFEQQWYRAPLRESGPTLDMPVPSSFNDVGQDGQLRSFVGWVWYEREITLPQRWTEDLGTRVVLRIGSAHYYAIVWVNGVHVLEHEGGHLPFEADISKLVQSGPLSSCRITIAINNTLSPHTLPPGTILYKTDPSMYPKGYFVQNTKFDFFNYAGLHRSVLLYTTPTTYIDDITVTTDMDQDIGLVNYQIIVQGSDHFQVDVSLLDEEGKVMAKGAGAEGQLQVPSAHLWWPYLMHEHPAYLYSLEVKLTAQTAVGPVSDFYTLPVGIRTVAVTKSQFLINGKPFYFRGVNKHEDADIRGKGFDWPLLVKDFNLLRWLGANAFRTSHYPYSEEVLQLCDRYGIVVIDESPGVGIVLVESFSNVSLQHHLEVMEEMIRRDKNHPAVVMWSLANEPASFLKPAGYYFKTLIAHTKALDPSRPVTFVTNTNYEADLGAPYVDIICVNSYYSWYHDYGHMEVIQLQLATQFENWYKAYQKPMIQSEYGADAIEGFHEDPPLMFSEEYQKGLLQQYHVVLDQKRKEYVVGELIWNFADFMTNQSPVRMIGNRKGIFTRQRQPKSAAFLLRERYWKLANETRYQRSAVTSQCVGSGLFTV
pIC50: −log10 of the molar value.
pIC50 for UniProt:A3KMY8 - collated from the literature.
readout: pIC50

As a guide, the following entries are already answered.
>>> result("O=S(=O)(Nc1ccccc1SSc1ccccc1NS(=O)(=O)c1ccc(Cl)cc1Cl)c1ccc(Cl)cc1Cl")
4.95
>>> result("COc1ccc(O)c(-c2nc3ncc(Cl)cc3[nH]2)c1")
3.89
>>> result("Oc1ccc(-c2nc3ncc(Cl)cc3[nH]2)cc1")
4.28
>>> result("Clc1ccc(-c2nc3c(Cl)cc(Cl)cc3[nH]2)cc1")
4.44
>>> result("COc1ccc(-c2nc3c(Cl)cc(Cl)cc3[nH]2)cc1O")
4.06
>>> result("Oc1ccccc1-c1nc2cc(Cl)cc(Cl)c2[nH]1")
5.35
>>> result("O=S(=O)(Nc1ccccc1SSc1ccccc1NS(=O)(=O)c1cc(Cl)ccc1Cl)c1cc(Cl)ccc1Cl")
4.79
>>> result("C(=N\\Nc1nc(-c2ccc(-c3ccccc3)cc2)cs1)/c1ccc2ccc3cccc4ccc1c2c34")
4.44
>>> result("Oc1cccc(-c2nc3c(Cl)cc(Cl)cc3[nH]2)c1")
4.55
>>> result("Oc1cccc(-c2nc3ncc(Cl)cc3[nH]2)c1")
4.17

(P) O=[N+]([O-])c1ccc(S(=O)(=O)Nc2ccccc2SSc2ccccc2NS(=O)(=O)c2ccc([N+](=O)[O-])cc2)cc1
(Q) Oc1ccc(-c2nc3ncc(Cl)cc3[nH]2)c(O)c1
Which entry has a larger number for pIC50, P or Q ? Give the label under which the chosen entry appears.
P

(I) COc1ccc(O)c(-c2nc3c(Cl)cc(Cl)cc3[nH]2)c1
(II) Cc1ccc(-c2csc(N/N=C/c3ccc4ccc5cccc6ccc3c4c56)n2)cc1
(III) O=S(=O)(Nc1ccccc1SSc1ccccc1NS(=O)(=O)c1cccc(Br)c1)c1cccc(Br)c1
Hello, I need these entries ordered by pIC50, highest reading first. Thanks! Put the labels in the order asked and list them.
I, II, III
(I: 4.81, II: 4.40, III: 4.05)
